Biological target: HLA-B*5101 (human)
Assay: competition vs 125I-labelled probe peptide, purified HLA, gel filtration
Exercise: state measured IC50 for each of the binders provided.
Numbers only, in nM.

As a guide, the following entries are already answered.
# binder, measurement
data = [
    ("FPGKNGVI (8-mer analog of the HER2/neu peptide starting at position 1174) [Her2/neu.1174.F1I8]", 177),
    ("FPSPREGPLPI (11-mer analog of the HER2/neu peptide starting at position 1149) [Her2/neu.1149.F1I11]", 262),
    ("FPLAPSEGI (9-mer analog of the HER2/neu peptide starting at position 1073) [Her2/neu.1073.F1I9]", 204),
    ("FPREGPLPAI (10-mer analog of the HER2/neu peptide starting at position 1151) [Her2/neu.1151.F1I10]", 20),
]

Go through the list and state IC50 for each entry.
1. FPAARPAGATL (11-mer analog of the HER2/neu peptide starting at position 1157) [Her2/neu.1157.F1]
2. FPLPAARPA (9-mer analog of the HER2/neu peptide starting at position 1155) [Her2/neu.1155.F1]
3. FPRFRELVSEI (11-mer analog of the HER2/neu peptide starting at position 966) [Her2/neu.966.F1I11]
4. FPAARPAGATI (11-mer analog of the HER2/neu peptide starting at position 1157) [Her2/neu.1157.F1I11]

1. 239
2. 1900
3. 167
4. 13

Go through the list and state IC50 for each entry.
1. FPLPAARPI (9-mer analog of the HER2/neu peptide starting at position 1155) [Her2/neu.1155.F1I9]
2. FPYDGIPAREI (11-mer B7 supermotif analog of the HER2/neu peptide starting at position 921) [Her2/neu.921.F1I11]

7.1
50
